Read-out: ABC Transporter (ABCB1), ABCB1 (gene 5243)
Assay: CLD_ABCB1_48hr: CellzDirect (CLD) Gene Expression Assay for ABC Transporter (ABCB1) at 48 hours (AID 2283695)
Results filed as inconclusive are left out. The source made the active and inactive calls. How the source made its calls: active means hit-call score of the fitted dose curve at least 0.9, where 1 is the maximum; inconclusive means response in the unintended direction; inactive means score below 0.9.
Outcome codes: active, inactive

| COMPOUND | ASSIGNED_CLASS |
| --- | --- |
| CCC(C)(NC(=O)c1cc(Cl)c(C)c(Cl)c1)C(=O)CCl (configuration not stated) | inactive |
| CNC(=O)Oc1cccc(N=CN(C)C)c1 | inactive |
| C#CCN1C(=O)COc2cc(F)c(N3C(=O)C4=C(CCCC4)C3=O)cc21 | inactive |
| Oc1cc(Cl)ccc1Oc1ccc(Cl)cc1Cl | inactive |
| CC[C@H](C)[C@H]1O[C@]2(C=C[C@@H]1C)C[C@@H]1C[C@@H](C/C=C(\C)[C@@H](O[C@H]3C[C@H](OC)[C@@H](O[C@H]4C[C@H](OC)[C@@H](O)[C@H](C)O4)[C@H](C)O3)[C@@H](C)/C=C/C=C3\CO[C@@H]4[C@H](O)C(C)=C[C@@H](C(=O)O1)[C@]34O)O2 (tested in a mixture with another compound) | active |
| COP(=S)(OC)Oc1ccc([N+](=O)[O-])cc1 | inactive |
| COP(=O)(OC)OC=C(Cl)Cl | inactive |
| O=C(O)CCCOc1ccc(Cl)cc1Cl | inactive |
| COC(=O)c1ccccc1S(=O)(=O)NC(=O)Nc1nc(C)nc(OC)n1 | inactive |
| O=C1c2ccccc2C(=O)N1SC(Cl)(Cl)Cl | inactive |
| CNC(=O)Oc1ccccc1OC(C)C | inactive |
| CC1(c2ccc(Oc3ccccc3)cc2)OC(=O)N(Nc2ccccc2)C1=O (configuration not stated) | inactive |

====

Tested on: SERPINA7 (gene 6906)
Assay: CCTE_GLTED_hTBG: CCTE's human Thyroxine-binding Globulin (TBG) Inhibition Assay, Great Lakes Toxicology and Ecology Division (GLTED) Lab (AID 2284343);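 further: active chemicals lower fluorescence versus DMSO baseline by displacing probe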
Experimental: CCTE_GLTED_hTBG is a cell-free, single-readout assay designed to test the chemicals' ability to displace T4 from the human thyroxine-binding globulin (TBG) protein. TBG is incubated in presence of test chemical for 2 hours during which disrupting chemicals displace ANSA from the TBG protein. Results read fluorescence at 380 excitation and 475 emission.CCTE_GLTED_hTBG is the assay component measured from the CCTE_GLTED_hTBG assay. […]
Active and inactive are the calls of the source. How the source made its calls: active means hit-call score of the fitted dose curve at least 0.9, where 1 is the maximum; inconclusive means response in the unintended direction; inactive means score below 0.9.

| COMPOUND | AC50 |
| --- | --- |
| O=C(O)CCCOc1ccc(Cl)cc1Cl | 20.7 µM (active) |
| CC(C)(C)C(O)/C(=C\c1ccc(Cl)cc1Cl)n1cncn1 (centres undefined) | 30.8 µM (active) |
| C#CCN1C(=O)COc2cc(F)c(N3C(=O)C4=C(CCCC4)C3=O)cc21 | 8.38 µM (active) |
| CCCN(CCC)c1c([N+](=O)[O-])cc(C(F)(F)F)cc1[N+](=O)[O-] | 5.16 µM (active) |

====

Read-out: UDP glucuronosyltransferase (UGT1A1), UGT1A1 (gene 54658)
Experiment: LTEA_HepaRG_UGT1A1: Life Technologies and Expression Analysis (LTEA) Assay for UDP glucuronosyltransferase (UGT1A1) using HepaRG (AID 2283538)
Conditions: mRNA level, 48 h; actives raise or lower the signal
Calls of active or inactive are those of the source. The calls were made as follows: active = hit-call score of the fitted dose curve at least 0.9, where 1 is the maximum; inactive = score below 0.9.
Outcome codes: active, inactive

| COMPOUND | ASSIGNED_CLASS |
| --- | --- |
| CNC(=O)Oc1ccccc1OC(C)C | active |
| CC(C)(C)C(O)/C(=C\c1ccc(Cl)cc1Cl)n1cncn1 (configuration not stated) | active |
| CNC(=O)Oc1cccc(N=CN(C)C)c1 | inactive |
| CCOCN(C(=O)CCl)c1c(C)cccc1CC | inactive |
| O=[N+]([O-])/N=C1\NCCN1Cc1ccc(Cl)nc1 | inactive |
| C[C@H]1[C@H](c2ccc(Cl)cc2)SC(=O)N1C(=O)NC1CCCCC1 | active |
| CCC(C)(NC(=O)c1cc(Cl)c(C)c(Cl)c1)C(=O)CCl (configuration not stated) | active |
| CCCN(CCOc1c(Cl)cc(Cl)cc1Cl)C(=O)n1ccnc1 | active |
| CC(C)N(C(=O)COc1nnc(C(F)(F)F)s1)c1ccc(F)cc1 | inactive |
| Cc1[nH]c(=O)n(C(C)(C)C)c(=O)c1Cl | active |
| O=C1c2ccccc2C(=O)N1SC(Cl)(Cl)Cl | inactive |
| Oc1cc(Cl)ccc1Oc1ccc(Cl)cc1Cl | inactive |

Reference source for all entries: PubChem BioAssay (EPA / NIEHS)
